experiment: viability rescue of complex I mutant cybrids, primary screen, cell-based, galactose medium, ATP luminescence (AID 1645843); conditions: complex I mutant cybrid cells, 72 h, stronger effect = higher value;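 also: positive z means more ATP and so rescue of galactose-driven cybrid death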
Overview of reported z-score across a group of compounds:

Compound | z-score
Cc1ccc(C(=O)Cn2c3c(sc2=N)CCCC3)cc1 | -0.225
COC(=O)C[C@](O)(CCCC(C)(C)O)C(=O)O[C@@H]1C(OC)=C[C@]23CCCN2CCc2cc4c(cc2[C@H]13)OCO4 | -0.84
COc1ccc2[nH]c(S(=O)Cc3ncc(C)c(OC)c3C)nc2c1 (stereo not given) | 0.665
CCCCC[C@H](CC(=O)NO)C(=O)N[C@H](C(=O)N1CCC[C@H]1CO)C(C)C | 2.42
N[C@H](CSC(c1ccccc1)(c1ccccc1)c1ccccc1)C(=O)O | 0.555

###

assay: liver-stage malaria parasite growth inhibition, primary screen, cell-based, HepG2, luciferase luminescence, HepG2 viability (AID 624349);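 also: 100% = mean of DMSO negative control wells on the same plate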; settings: P. berghei liver stage in HepG2, luciferase luminescence, concentration not given here; stronger effect = lower value

Molecule | parasite load remaining (%)
C#C[C@]1(OC(C)=O)CCC2C3CCC4=C/C(=N/O)CCC4C3CC[C@@]21CC (stereo not given in full) | 66.7
CC[C@H](NC(C)C)[C@H](O)c1ccc(O)c2[nH]c(=O)ccc12 | 42.5
CC(CCC(=O)O)[C@H]1CCC2C3CC[C@@H]4C[C@H](O)CC[C@]4(C)C3CC[C@@]21C (stereo not given in full) | 32.1
Cc1c(O)c(=O)ccn1C | 103
CN1CCN(c2nc3cc(C(F)(F)F)ccc3n3cccc23)CC1 | 58.1
Cc1c(C)c2c(c(C)c1O)CCC(C)(CCCC(C)CCCC(C)CCCC(C)C)O2 (stereo not given) | 67.5
CNCC[C@@H](Oc1ccccc1C)c1ccccc1 | 70.5
CCCCCCCCCCCCCCCC(=O)OC[C@H](NC(=O)C(Cl)Cl)[C@H](O)c1ccc([N+](=O)[O-])cc1 | 77.1
CC(C)CCCC(C)[C@H]1CCC2C3CC=C4C[C@@H](O)CC[C@]4(C)C3CC[C@@]21C (stereo not given in full) | 39.9
Nc1ccc(S(=O)(=O)[O-])cc1.Nc1ccc(S(=O)(=O)[O-])cc1.[Zn+2] | 34.7
CC1(C)SC2C(NC(=O)Cc3ccccc3)C(=O)N2C1C(=O)O (stereo not given) | 67.7
O=C1N[C@H](C(=O)O)CS1 | 95.8
CCCCN1CCCC1CNC(=O)c1cc(C#N)c2ccccc2c1OC (stereo not given) | 35.8
COc1ccc2[nH]c(S(=O)Cc3ncc(C)c(OC)c3C)nc2c1 (stereo not given) | 75.4
COc1cccc2c1C(=O)c1c(O)c3c(c(O)c1C2=O)C[C@@](O)(C(=O)CO)C[C@@H]3OC1C[C@H](N)[C@H](O)[C@H](C)O1 (stereo not given in full) | 18.8
CC(C)(C)NC[C@@H](O)COc1nsnc1N1CCOCC1 | 198
NC(Cc1cc(I)c(Oc2ccc(O)c(I)c2)c(I)c1)C(=O)O (stereo not given) | 39.9
Cc1c(C(=O)NN2CCCCC2)nn(-c2ccc(Cl)cc2Cl)c1-c1ccc(I)cc1 | 23
C[C@]12C=CC(=O)C=C1CCC1C2[C@@H](O)C[C@@]2(C)C1CC[C@]2(O)C(=O)COC(=O)CCC(=O)O (stereo not given in full) | 61.5
CC(=O)[C@@]1(O)CC[C@H]2[C@@H]3C[C@H](C)C4=CC(=O)CC[C@]4(C)[C@H]3CC[C@@]21C | 37.7

###

test system: F380Y; assay: modulators of BK channel variants, profiling panel, selectivity assay, cell-based, U2OS BacMam, thallium flux, beta subunits (AID 1259406); settings: at 30 µM;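 also: initial slope of Thallos dye fluorescence rise after thallium is added; log ratio against the mean of 0.3% DMSO vehicle wells on the same plate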
Activity calls are given as the source filed them.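 Rule for the calls: active = thallium flux through the channel raised or lowered by more than 3 SD from vehicle-only wells, actives on both sides; inactive = the rest.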
Outcomes: t for active, f for inactive

Compound | Class Name
Cc1nn(-c2ccccc2)nc1C(=O)NNC(=O)CSCc1cccc2ccccc12 | f
COc1ccc(CCN=Cc2ccccn2)cc1OC | f
COc1cc(CCC(C)NC(=O)c2ccc(C)cc2)ccc1OC(=O)c1ccc(C)cc1 (stereo unspecified) | f
CC(=NO)c1ccc2c(c1)C(C)(C)CCC2(C)C | t
CC(=O)NC[C@H]1CN(c2ccc(N3CCOCC3)c(F)c2)C(=O)O1 | f
COC(=O)C(C#N)=C1NC(C)=NC(SC)=C1C#N | f
CC(=O)OCC(=O)C12OC3(CCCC3)OC1CC1C3CCC4=CC(=O)C=CC4(C)C3(F)C(O)CC12C (stereo unspecified) | t
Cc1cnc(N)c(C)n1 | f
C=CCc1ccc(O)c(-c2ccc(O)c(CC=C)c2)c1 | t
NC(C=Cc1cc(C(F)(F)F)cc(C(F)(F)F)c1)=NOC(=O)c1c(F)cccc1F | f
O=C(CCN1CCOCC1)Nc1cc(Cl)cc(Cl)c1 | f

###

Overview of reported inhibition across a group of molecules:
target: L-lactate dehydrogenase (Plasmodium falciparum (isolate CDC / Honduras)); test: PfLDH activity inhibition – cell lysate, 3D7 strain, counter-screen for P. falciparum growth inhibition project (AID 2304);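 also: 0% = vehicle and 100% = reference inhibitor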; details: P. falciparum 3D7 crude extract, LDH APAD/NBT absorbance; at 2 µM; stronger effect = higher value
Reported Metric: inhibition (%)

Molecule | Unit Name | Result Value
COc1ccc(Nc2ncc(OC)c(Nc3ccccc3C(N)=O)n2)cc1N1CCN(C)CC1 | % | 0
CC(CNc1ccnc(Nc2ccc3[nH]c(=O)[nH]c3c2)n1)c1ccccc1 (stereo unspecified) | % | 6
Cc1noc(C)c1-c1cccc(CNCc2ccc(-c3ccc(-c4nc5ccccc5[nH]4)s3)cc2)c1 | % | -6
CO/N=C(\C)c1ccc2c(c1)CCN(CCC1CCC(NC(=O)c3cccc(-c4noc(C)n4)c3)CC1)CC2 (stereo unspecified) | % | -1
c1ccc2[nH]c(-c3ccc(-c4ccc(CN5CCN(CCN6CCOCC6)CC5)cc4)s3)nc2c1 | % | -2
Oc1cc(-c2nc(C3(CNCc4ccc(Cl)cc4)CCCCC3)[nH]c2-c2ccncc2)ccc1Cl | % | 2
Oc1cc(Nc2ccnc3cc(I)ccc23)c(F)cc1Cl | % | -3
CCn1c(O)c(N=NC(=S)N2CCCC2)c2ccccc21 | % | 4
Cn1nc(C(F)(F)F)c(-c2ccc(F)cc2)c1NC(=O)Nc1ccccc1 | % | 6
Clc1ccccc1C=NNc1ccnc2ccccc12 | % | -3
CCCN1CCCN(Cc2cccc(NC(=O)c3ccc(-c4ccccc4)cc3)c2)CC1 | % | 1
COc1cccc(-c2cc3c(NCc4ccncc4)nccc3s2)c1 | % | -2
O=C(Nc1ccc(-c2nc3ccc(NC(=O)c4ccc(Br)cc4)cc3[nH]2)cc1)c1ccc(Br)cc1 | % | 3
Cc1ccc(-c2cnc3[nH]cc(-c4ccc(C(=O)O)c(C)c4)c3c2)cc1C | % | 0
Oc1cc2ccccc2cc1CNC1CCCCC1 | % | -9
O=C(Nc1cccc(-c2ccc(CN3CCCC3)cc2)c1)c1ccc(F)cc1 | % | 4
Cn1c(Nc2nnc(C3CC3)s2)nc2cc(Nc3ccnc(Nc4cccc(CS(C)(=O)=O)c4)n3)ccc21 | % | -1
Cc1cc(NC(=O)c2ccsc2)ccc1OC1CCN(Cc2ccc(F)cc2)CC1 | % | -2
Nc1nccc2ccc(Oc3ccncc3)cc12 | % | -2
COc1ccc(Nc2ncc(Cl)c(Nc3cccnc3C(N)=O)n2)cc1N1CCN(C)CC1 | % | 6
O=c1cc(NCCCNCc2[nH]c3cc(Cl)ccc3c2Cl)[nH]c2ccccc12 | % | -2

###

Overview of reported rescue above control across a group of compounds:
assay: rescue of polyQ-huntingtin neuronal dysfunction in worms, whole organism, C. elegans mechanosensory neurons, N-terminal huntingtin (AID 1599); conditions: touch response, stronger effect = higher value
Results with a measured potency or affinity are listed apart.

Compound | rescue above control
Cc1onc(-c2ccccc2)c1C(=O)NC1C(=O)N2[C@@H]1SC(C)(C)[C@@H]2C(=O)O (stereo not given in full) | 17.4
CN1CCN(CCC=C2c3ccccc3Sc3ccc(S(=O)(=O)N(C)C)cc32)CC1 | 18.8
C=C1CC[C@H](O)C/C1=C/C=C1\CCC[C@]2(C)C([C@H](C)/C=C/[C@H](C)C(C)C)CC[C@@H]12 (stereo not given in full) | 1.1
CC(=O)OCC(=O)[C@@]1(O)CCC2C3CCC4=CC(=O)C=CC4(C)C3[C@@H](O)C[C@@]21C (stereo not given in full) | -9.27
CC1OC1P(=O)(O)O (stereo not given) | 16.3
NCCCCNCCCN | -7.17
CC12CCC(=O)C=C1CCC1C2[C@@H](O)CC2(C)C1CC[C@]2(O)C(=O)COP(=O)(O)O (stereo not given in full) | -3.35
CC(=O)[C@H]1CCC2C3C[C@H](C)C4=CC(=O)CC[C@]4(C)C3[C@@H](O)C[C@@]21C (stereo not given in full) | 5.72
C[C@@H]1CC2C3C[C@H](F)C4=CC(=O)C=C[C@]4(C)[C@@]3(F)[C@@H](O)C[C@]2(C)[C@@]1(O)C(=O)CO (stereo not given in full) | 11.3
CC(C)(S)C(N)C(=O)O (stereo not given) | -1.67
CCCCC[C@H](CC(=O)NO)C(=O)N[C@H](C(=O)N1CCC[C@H]1CO)C(C)C | 7.47
C1CCN2C[C@H]3C[C@H](CN4CCCC[C@@H]34)[C@H]2C1 | -2.03
CC(=O)[C@@]1(O)CCC2C3C=C(Cl)C4=CC(=O)[C@@H]5CC5[C@]4(C)C3CC[C@@]21C (stereo not given in full) | 12.8
CC(C)[N+]1(C)C2CC[C@@H]1CC(OC(=O)C(CO)c1ccccc1)C2 (stereo not given in full) | -2.72
C=C[C@H]1CN2CC[C@H]1C[C@@H]2[C@H](O)c1ccnc2ccc(OC)cc12 | -7.29
O=c1[nH]c(=O)n(C2C[C@@H](O)[C@@H](CO)O2)cc1F (stereo not given in full) | -12.2
O=C1O[C@@H](CO)[C@H](O)[C@@H](O)[C@@H]1O | 7.61
CC(C)(C)NC[C@@H](O)COc1nsnc1N1CCOCC1 | -14.1
CN(C)CCCO[C@H]1[C@@H](C(O)CO)OC2OC(C)(C)O[C@@H]21 (stereo not given in full) | -9.95
C=C[C@@]1(C)CC(=O)[C@@]2(O)[C@](C)(O1)[C@@H](OC(C)=O)[C@@H](O)C1C(C)(C)CC[C@H](O)[C@@]12C (stereo not given in full) | 0.33
